Biological target: S-layer protein SpaA (SpaASLH) (Paenibacillus alvei, UniProt C1JZ07)
Sequence (C1JZ07 21-193): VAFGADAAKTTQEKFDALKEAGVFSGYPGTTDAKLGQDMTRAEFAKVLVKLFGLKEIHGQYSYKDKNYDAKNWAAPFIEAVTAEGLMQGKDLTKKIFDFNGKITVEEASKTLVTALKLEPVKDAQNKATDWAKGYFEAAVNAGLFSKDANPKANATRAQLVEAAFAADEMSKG
pKd: −log10 of the molar value.

- compound: "CO[C@@H]1O[C@@H]2CO[C@](C)(C(=O)O)O[C@H]2[C@H](O)[C@@H]1NC(C)=O [monosaccharide (M), 4,6-Pyr-β-D-ManNAcOMe]"
  study-target: "S-layer protein SpaA (SpaASLH) (Paenibacillus alvei, UniProt C1JZ07)"
  pKd: 7.54
